- Test system: SK-MEL-2
- TEST METHOD NOTES: NCI tumour cell line growth inhibition, 48 h
Activity calls are given as the source filed them. Cut-off read from the data, not from the text of the source: active = GI50 up to about 1.1 µM and inactive = higher.
READOUT NAME: GI50

Ask | Supply GI50 value. Item: O=C1C(=O)N(c2ccc(Cl)cc2)C(=O)/C(=N/c2cccc3c(=O)[nH][nH]c(=O)c23)C1c1nc2ccccc2o1 (stereo not given)
Reply | > 100 µM (inactive)

Ask | Give GI50 for the following compound: CC(C)Cc1ccc(C(C)/C=C2\CCC(CN(C)C)C2=O)cc1 (stereo not given)
Reply | 14.4 µM (inactive)

Ask | // fetch GI50 given entry "CCOC(=O)c1cccnc1C(OC(C)=O)OC(C)=O"
Reply | > 100 µM (inactive)

Ask | Look up GI50 of "CCOC(=O)CC[C@H](NC(=O)c1nc[nH]c1/N=N/N(C)C)C(=O)OCC" and report it.
Reply | > 100 µM (inactive)

Ask | Return the recorded GI50 value; entry: CC(=O)OC1/C=C(\C)C(OC(C)=O)C/C=C(/C)CCC2C(/C=C/C1=O)C2(C)C (stereo not given)
Reply | > 100 µM (inactive)

Ask | Identify measured GI50 corresponding to "S=P1(N2CCCCC2)Oc2ccc3ccccc3c2-c2c(ccc3ccccc23)O1"
Reply | 31.6 µM (inactive)

Ask | Determine from records and report GI50 for COP(C)(=O)/C(Cc1ccccc1)=N\O (stereo not given)
Reply | > 100 µM (inactive)

Ask | Return value of GI50 for input "CC(C)COC(=O)c1ccc(/N=C\c2ccc(/C=N/c3ccc(C(=O)OCC(C)C)cc3)cc2)cc1" , no commentary.
Reply | > 100 µM (inactive)

Ask | For the compound "CN(C)CCO/N=C1/C=C2CC[C@H]3[C@@H]4CC[C@H](O)[C@@]4(C)CC[C@@H]3[C@@]2(C)CC1" , report GI50.
Reply | 13.9 µM (inactive)

Ask | Give a short answer stating reported GI50 for "O=C1N(C2CCCCC2)CC12CCCCC2" .
Reply | > 100 µM (inactive)

====

- System: MDA-MB-435
- TEST METHOD NOTES: NCI tumour cell line growth inhibition, 48 h
The source made the active and inactive calls. No stated cut-off is given here; in the data, active = GI50 up to about 1.1 µM and inactive = higher.
Answer with one of the outcomes given here: T (active), F (inactive)

Ask | Short answer needed: outcome of this test for "CN(C)C(=O)Oc1ccc(C(=S)Nc2ccccc2)cc1Br" ?
Reply | F

Ask | Look up the recorded call for Clc1ccc2c(c1)CC1C[N+]3=C(CCCC3)C1=C2 (centres undefined) in this test.
Reply | F

Ask | Tell me the assay call for COC1C(OC(=O)/C=C/C=C/C=C/C=C\C(=O)O)CCC2(CO2)C1C1(C)OC1CC=C(C)C (centres undefined) please.
Reply | F

Ask | Write down the call the test reported for this compound. Item: COCC#C[C@@]1(O)CCCCC1CC(OC)OC (some centres undefined)
Reply | F

Ask | Returns: the outcome recorded for "O=C(NNS(=O)(=O)c1ccccc1)c1cccnc1" in this assay.
Reply | F

Ask | For "COc1ccc(C(=O)c2cc(OC)c(OC)c(OC)c2)cc1OC" , what call appears in the results of this test?
Reply | T

Ask | Outcome? "COC(=O)c1ccccc1/C=C1\Cc2ccc3c(c2C1=O)CCCC3"
Reply | F

Ask | What is the recorded call for this compound in the test? "CCN(CC)CCNc1n[n+]([O-])c2cc([N+](=O)[O-])ccc2[n+]1[O-]"
Reply | T

Ask | Which outcome was entered for the compound "COc1ccc2[nH]cc(C(=O)C(=O)NC34CC5CC(CC(C5)C3)C4)c2c1" in this test?
Reply | F

Ask | What classification did "C/C(=N\O)c1ccc2cc(Br)c3ccccc3c2c1" end up with in this test?
Reply | F

Ask | Test call, this compound: "C=Cc1cnc([N+](=O)[O-])n1C"
Reply | F

Ask | I would be grateful if you could indicate the recorded call for "COc1ccc([C@@]23CCC(=O)C[C@@H]2N(C)CC3)cc1OC" .
Reply | F

Ask | Which outcome was assigned to "COc1ccc(C(=O)N2CCN(c3ccc4c(c3)OCC(=O)N4)CC2)cc1OC" in this test?
Reply | F

Ask | For "COc1ccc(OC)c2c(Nc3ccc(S(=O)(=O)O)c4cc(S(=O)(=O)O)cc(S(=O)(=O)O)c34)cc(C)nc12" , which call appears in the assay record?
Reply | F

Ask | Could you check what this test reported for "S=C(S)N1CCN(c2ccccc2)CC1" ?
Reply | F

Ask | Lab log entry: CCC1CCC2C3CC=C4CC(OC(C)=O)C(N)CC4(C)C3CCC12C (centres undefined) — outcome as called in the assay?
Reply | F

Ask | Recorded test call requested for NC(=O)c1ccccc1NC(=O)C(=O)C(c1cnc2ccc([N+](=O)[O-])cc2n1)[N+](=O)[O-] (centres undefined)
Reply | F

Ask | What outcome does the record of this test show for CCOC(=O)C(NC(=O)c1ccccc1)(Nc1ccc(Cl)cc1C(F)(F)F)C(F)(F)F (centres undefined) ?
Reply | F

Ask | Which outcome did this test record for the compound "C/C(CC/C(C)=N/O)=N\O" ?
Reply | F

Ask | What classification did "COc1cc(-c2oc3c(OC)cc(OC)c(O)c3c(=O)c2OC)cc(OC)c1OC" end up with in this test?
Reply | F

Ask | I'd appreciate the recorded outcome for "CC(C)(CN1CCCCC1)C(=O)/C=C/c1c(Cl)cccc1Cl" from this test.
Reply | T

Ask | How was "O=CCOCc1cc2c(cc1Br)OCO2" classified in this test?
Reply | F

Ask | Call for entry CCOC(=O)C(NC(=O)N(C1=NCC(C)S1)C1CCCCC1)(OC)C(F)(F)F (centres undefined) :
Reply | F

Ask | Hello, I am checking results. What call was entered for Nc1ncc(/C=N/O)c(NCC2(CO)CC(CCc3ccccc3)C2)n1 (centres undefined) ?
Reply | F

====

- System: HOP-62
- TEST METHOD NOTES: NCI tumour cell line growth inhibition, 48 h
The source made the active and inactive calls. No stated cut-off is given here; in the data, active = GI50 up to about 1.1 µM and inactive = higher.
Outcome (select one): TRUE = active, FALSE = inactive

Ask | I would be grateful if you could indicate the recorded call for COc1ccc(OC)c(N2CC(N)C2=O)c1 (centres undefined) .
Reply | FALSE

Ask | Identify the outcome logged in this assay for the molecule shown: "COc1cccc(/C=C2\C(=O)N(C(=O)Cc3ccccc3)N=C2C)c1"
Reply | FALSE

Ask | // outcome(item) with item = CN(C)CC1CCCC1=O (centres undefined)
Reply | FALSE

Ask | // outcome(item) with item = "S=C(/N=c1\sc(Nc2ccc(Cl)cc2)nc2sc3c(c12)CCN(N1CCc2c(sc4nc(Nc5ccc(Cl)cc5)s/c(=N\C(=S)Nc5ccc(Cl)cc5)c24)C1)C3)Nc1ccc(Cl)cc1"
Reply | FALSE

Ask | In this assay, the call recorded for "C=C[C@H]1CN2CCc3c([nH]c4c([C@@H]5CCCN5C)c(O)ccc34)[C@@H]2C[C@@H]1C[C@H]1c2[nH]c3ccccc3c2CCN1C" was what?
Reply | FALSE

Ask | Dear colleague, could you share the recorded outcome for "CCN(CC)CCNc1n[n+]([O-])c2cc([N+](=O)[O-])ccc2[n+]1[O-]" when you have a moment?
Reply | TRUE

Ask | Answer briefly: the call reported for "O=C1N=NC(=O)N1c1cc(C(F)(F)F)cc(C(F)(F)F)c1" in this assay.
Reply | FALSE

Ask | Write down the call the test reported for this molecule. Item: CCOC(=O)C(NC(=O)c1ccccc1)(Nc1ccc(Cl)cc1C(F)(F)F)C(F)(F)F (centres undefined)
Reply | FALSE

Ask | # outcome recorded in this test, key = "COc1ccc2[nH]cc(C(=O)C(=O)NC34CC5CC(CC(C5)C3)C4)c2c1"
Reply | FALSE

====

- System: NCI-H460
- TEST METHOD NOTES: NCI tumour cell line growth inhibition, 48 h
The source made the active and inactive calls. No stated cut-off is given here; in the data, active = GI50 up to about 1.1 µM and inactive = higher.
Use one of these outcomes when replying: active, inactive

Ask | What was the test verdict on O=C1C2c3[nH]c4ccccc4c3C3CCCC3C2C(=O)N1c1ccccc1 (configuration not stated) ?
Reply | inactive

Ask | Please let me know the test result on file for "O=c1[nH]nc(-c2ccccc2)n1/N=C/c1ccccc1Cl" .
Reply | inactive

Ask | What did the test return for "CNc1nc(C(N)=O)c(N)s1" ?
Reply | inactive

Ask | Assay outcome for C[C@]12CC[C@H](OC3CCCCO3)CC1=CC[C@@H]1C2CC[C@]2(C)/C(=N/OCCC#N)CCC12 (some centres not stated) : what was it?
Reply | inactive

Ask | Please share the test call associated with "CCCCCCCCCCCC[C@@H](O)[C@H]1CC[C@H]([C@H](O)CC[C@H](O)[C@@H]2CC[C@@H](CCCCCCCC3=C[C@H](C)OC3=O)O2)O1" .
Reply | inactive

Ask | Tell me the assay call for COc1cc([C@@H]2c3cc4c(cc3[C@@H](OC(=O)c3ccccc3)C3COC(=O)[C@@H]32)OCO4)cc(OC)c1O (some centres not stated) please.
Reply | active

Ask | Fill in: this test's call for O=C1CCC(=O)C(C(=O)CCC(=O)Nc2cccc(Cl)c2)C1 (configuration not stated) is ___
Reply | inactive

Ask | Record lookup: outcome of this test for COc1ccc(-c2csc3c2[N+]2(C)C=CC=C2C3N2CCCC2)cc1 (configuration not stated) ?
Reply | inactive

Ask | Recorded call for "CCN(CCO)C(=O)C1(c2ccccc2)CCCCC1" ?
Reply | inactive

Ask | How did this test come out for "Cn1c(-c2cccc([N+](=O)[O-])c2)[n+](C)c2ccccc21" ?
Reply | inactive

Ask | What did this assay record as the result for CCOC(=O)C(NC(=O)c1ccccc1)(Nc1ccc(Cl)cc1C(F)(F)F)C(F)(F)F (configuration not stated) ?
Reply | inactive

Ask | I would be grateful if you could indicate the recorded call for "O=c1[nH]nc(-c2ccccc2)n1O" .
Reply | inactive

Ask | Please state the recorded outcome for this molecule: "S=C(Cc1ccc2c(c1)Sc1ccccc1O2)N1CCOCC1"
Reply | inactive

Ask | Given "O=C(O)CCCc1nc2c(n1-c1ccccc1)C(=O)c1ccccc1C2=O" , state the outcome it received in this test.
Reply | inactive

Ask | Please let me know the test result on file for "O=C(CCc1cc(-c2ccccc2)nc(S)n1)N(Cc1ccccc1)Cc1ccccc1" .
Reply | inactive

Ask | Test call for this molecule, please: COc1ccc(C2S/C(=C\c3ccccc3O)C(=O)N2NC(=O)Cc2ccccc2)cc1 (configuration not stated)
Reply | inactive

Ask | What outcome does the record of this test show for "CCOC(=O)CC[C@H](NC(=O)c1nc[nH]c1/N=N/N(C)C)C(=O)OCC" ?
Reply | inactive

Ask | Give the logged outcome of this assay for the following molecule: CN(C)CC1CCCC1=O (configuration not stated)
Reply | inactive

Ask | Recorded test call requested for CC1=C(C)C2(C#N)C(=O)N3C(=NC(c4ccco4)NC3c3ccco3)C2(C#N)C(c2ccco2)N1 (configuration not stated)
Reply | inactive

Ask | Please share the test call associated with "COc1ccc(/C=N/NC(=O)CSc2nc(-c3ccccc3)c(-c3ccccc3)[nH]2)cc1OC" .
Reply | inactive

Ask | Per the assay record, what outcome was assigned to "O=C(NC1=C(Cl)C(=O)c2ccccc2C1=O)c1ccccc1" ?
Reply | inactive

Ask | Hi, do you know how "COc1ccc2c(OC)c3ccoc3nc2c1O" came out in this test?
Reply | inactive

Ask | Record lookup: outcome of this test for "COc1cc(C2C(C(=O)NCc3ccccc3)=C(C)NC(C)=C2C(=O)NCc2ccccc2)ccc1O" ?
Reply | inactive

Ask | What outcome does the record of this test show for "COc1cc(-c2oc3c(OC)cc(OC)c(O)c3c(=O)c2OC)cc(OC)c1OC" ?
Reply | inactive

Ask | Dear colleague, could you share the recorded outcome for "Nc1nc(Cl)cc(NCCCCCCCCCCNc2cc(Cl)nc(N)n2)n1" when you have a moment?
Reply | inactive

Ask | I would be grateful if you could indicate the recorded call for "COc1c(Br)cc(Br)c(OC)c1-c1[nH]c(Br)c(Br)c1Br" .
Reply | inactive

Ask | Test call for this molecule, please: "COc1cc(NCCC(=O)O)c2ncccc2c1"
Reply | inactive
